Each entry below carries its recorded Log P (partition coefficient butanol/buffer).
experiment: Partition coefficient (log P butanol/buffer); type: physicochemical; conditions: 1-butanol / 50 mM Tris-HCl, pH 7.4, room temperature
outcome_measure: Log P (partition coefficient butanol/buffer)

- compound: "CCOCCOCCOc1ccc(CC(C(=O)O)N2CCN(C(CCO)C(=O)[O-])CCN(C(CCO)C(=O)[O-])CCN(C(CCO)C(=O)[O-])CC2)cc1.[Gd+3] (stereo not drawn) [Example 37]"
  recorded_number: "−1.16"
- compound: "CCOCCOCCOc1ccc(CC(C(=O)O)N2CCN(CC(=O)[O-])CCN(C(C)C(=O)[O-])CCN(CC(=O)[O-])CC2)cc1.[Gd+3] (single isomer, unassigned) [Example 5]"
  recorded_number: "−1.52"
- compound: "O=C([O-])CN1CCN(CC(=O)[O-])CCN([C@H](Cc2ccc(OCC(F)(F)F)cc2)C(=O)O)CCN(CC(=O)[O-])CC1.[Gd+3] [Example 47]"
  recorded_number: "−0.77"

----------
test system: freshly isolated rat hepatocytes; experiment: Uptake into freshly isolated rat hepatocytes; details: rat hepatocyte uptake; test item and Rifampicine 1:1, each 100 μM
Collected Inhibition Rifampicine values appear next to each entry.

- compound: "CCOCCOCCOCCOc1ccc(C[C@H](C(=O)O)N2CCN(CC(=O)[O-])CCN(CC(=O)[O-])CCN(CC(=O)[O-])CC2)cc1.[Gd+3]"
  Inhibition Rifampicine / % inhibition: 97
- compound: "CCOCCOCCOc1ccc(CC(C(=O)O)N2CCN(CC(=O)[O-])CCN(C(CO)C(=O)[O-])CCN(CC(=O)[O-])CC2)cc1.[Gd+3] (centres unmarked)"
  Inhibition Rifampicine / % inhibition: 56
- compound: "CCOCCOCCOc1cc(CC(C(=O)O)N2CCN(CC(=O)[O-])CCN(CC(=O)[O-])CCN(CC(=O)[O-])CC2)cc(OCCOCCOCC)c1.[Gd+3] (centres unmarked)"
  Inhibition Rifampicine / % inhibition: 64
- compound: "CCOCCOCCOc1ccc(CCC[C@@H](C(=O)O)N2CCN(CC(=O)[O-])CCN(CC(=O)[O-])CCN(CC(=O)[O-])CC2)cc1.[Gd+3]"
  Inhibition Rifampicine / % inhibition: 97
- compound: "CCOc1ccc(CCCC(C(=O)O)N2CCN(CC(=O)[O-])CCN(CC(=O)[O-])CCN(CC(=O)[O-])CC2)cc1.[Gd+3] (centres unmarked)"
  Inhibition Rifampicine / % inhibition: 98
- compound: "O=C([O-])CN(CCN(CC(=O)[O-])CC(=O)[O-])CCN(CC(=O)[O-])C(COCc1ccccc1)C(=O)[O-].[Gd+3].[H+].[H+] (centres unmarked) [RC2, gadobenic acid, reference compound]"
  Inhibition Rifampicine / % inhibition: 79
- compound: "CCOCCOCCOc1ccc(CC(C(=O)[O-])N2CCN(CC(=O)[O-])CCN(C(CC)C(=O)O)CCN(CC(=O)[O-])CC2)cc1.[Gd+3] (centres unmarked)"
  Inhibition Rifampicine / % inhibition: 97
- compound: "CCOCCOCCOc1ccc(CC(C(=O)O)N2CCN(CC(=O)[O-])CCN(C(C)C(=O)[O-])CCN(CC(=O)[O-])CC2)cc1.[Gd+3] (single isomer, unassigned) [Example 6]"
  Inhibition Rifampicine / % inhibition: 96
- compound: "CCOCCOc1ccc(CC(C(=O)O)N2CCN(CC(=O)[O-])CCN(CC(=O)[O-])CCN(CC(=O)[O-])CC2)cc1.[Gd+3] (centres unmarked)"
  Inhibition Rifampicine / % inhibition: 93
- compound: "CCCC(C(=O)[O-])N1CCN(CC(=O)[O-])CCN(C(Cc2ccc(OCC)cc2)C(=O)O)CCN(CC(=O)[O-])CC1.[Gd+3] (centres unmarked) [Example 29]"
  Inhibition Rifampicine / % inhibition: 99
- compound: "CCCOc1ccc(CC(C(=O)O)N2CCN(CC(=O)[O-])CCN(CC(=O)[O-])CCN(CC(=O)[O-])CC2)cc1.[Gd+3] (centres unmarked)"
  Inhibition Rifampicine / % inhibition: 98
- compound: "CCOCCOCCOc1ccc(CCC[C@@H](C(=O)O)N2CCN([C@H](CO)C(=O)[O-])CCN([C@H](CO)C(=O)[O-])CCN([C@H](CO)C(=O)[O-])CC2)cc1.[Gd+3]"
  Inhibition Rifampicine / % inhibition: 91
- compound: "CCOCCOCCOCCOc1ccc(C[C@@H](C(=O)O)N2CCN(CC(=O)[O-])CCN(CC(=O)[O-])CCN(CC(=O)[O-])CC2)cc1.[Gd+3]"
  Inhibition Rifampicine / % inhibition: 93
- compound: "CCOCCOCCOc1ccc(C[C@H](C(=O)O)N2CCN(CC(=O)[O-])CCN(CC(=O)[O-])CCN(CC(=O)[O-])CC2)cc1.[Gd+3]"
  Inhibition Rifampicine / % inhibition: 98
- compound: "CCOCCOCCOc1ccc(CC(C(=O)O)N2CCN(CC(=O)[O-])CCN(C(C)C(=O)[O-])CCN(CC(=O)[O-])CC2)cc1.[Gd+3] (single isomer, unassigned) [Example 5]"
  Inhibition Rifampicine / % inhibition: 92
- compound: "CCOCCOc1ccc(CC(C(=O)O)N2CCN(CC(=O)[O-])CCN(C(CC)C(=O)[O-])CCN(CC(=O)[O-])CC2)cc1.[Gd+3] (single isomer, unassigned) [Example 8]"
  Inhibition Rifampicine / % inhibition: 98
- compound: "CCOCCOCCOc1ccc(CCC[C@H](C(=O)O)N2CCN([C@@H](CO)C(=O)[O-])CCN([C@@H](CO)C(=O)[O-])CCN([C@@H](CO)C(=O)[O-])CC2)cc1.[Gd+3]"
  Inhibition Rifampicine / % inhibition: 91
- compound: "CCOCCOCCOc1ccc(CCC[C@@H](C(=O)O)N2CCN([C@@H](CO)C(=O)[O-])CCN([C@@H](CO)C(=O)[O-])CCN([C@@H](CO)C(=O)[O-])CC2)cc1.[Gd+3]"
  Inhibition Rifampicine / % inhibition: 94
- compound: "CCOCCOCCOCCOc1ccc(CC(C(=O)O)N2CCN(CC(=O)[O-])CCN(C(COC)C(=O)[O-])CCN(CC(=O)[O-])CC2)cc1.[Gd+3] (centres unmarked)"
  Inhibition Rifampicine / % inhibition: 86
- compound: "CCOCCOCCOc1ccc(C[C@@H](C(=O)O)N2CCN(CC(=O)[O-])CCN(CC(=O)[O-])CCN(CC(=O)[O-])CC2)cc1.[Gd+3]"
  Inhibition Rifampicine / % inhibition: 96
- compound: "CCOCCOCCOc1ccc(CC(C(=O)O)N2CCN(C(CCO)C(=O)[O-])CCN(C(CCO)C(=O)[O-])CCN(C(CCO)C(=O)[O-])CC2)cc1.[Gd+3] (centres unmarked)"
  Inhibition Rifampicine / % inhibition: 37
- compound: "CCOCCOCCOc1ccc(CC(C(=O)O)N2CCN(CC(=O)[O-])CCN(CC(=O)[O-])CCN(CC(=O)[O-])CC2)cn1.[Gd+3] (centres unmarked)"
  Inhibition Rifampicine / % inhibition: 92
- compound: "CCCC(C(=O)[O-])N1CCN(CC(=O)[O-])CCN(C(Cc2ccc(OCC)cc2)C(=O)O)CCN(CC(=O)[O-])CC1.[Gd+3] (centres unmarked) [Example 30]"
  Inhibition Rifampicine / % inhibition: 99

----------
compounds and their reported Inhibition Rifampicine
molecular target: OATP1B3 (Homo sapiens); experiment: Uptake into stable transfected OATP1B3 HEK 293 cells; assay type: cell-based; settings: uptake into OATP1B3-HEK 293 cells
Sequence (Q9NPD5 whole entry): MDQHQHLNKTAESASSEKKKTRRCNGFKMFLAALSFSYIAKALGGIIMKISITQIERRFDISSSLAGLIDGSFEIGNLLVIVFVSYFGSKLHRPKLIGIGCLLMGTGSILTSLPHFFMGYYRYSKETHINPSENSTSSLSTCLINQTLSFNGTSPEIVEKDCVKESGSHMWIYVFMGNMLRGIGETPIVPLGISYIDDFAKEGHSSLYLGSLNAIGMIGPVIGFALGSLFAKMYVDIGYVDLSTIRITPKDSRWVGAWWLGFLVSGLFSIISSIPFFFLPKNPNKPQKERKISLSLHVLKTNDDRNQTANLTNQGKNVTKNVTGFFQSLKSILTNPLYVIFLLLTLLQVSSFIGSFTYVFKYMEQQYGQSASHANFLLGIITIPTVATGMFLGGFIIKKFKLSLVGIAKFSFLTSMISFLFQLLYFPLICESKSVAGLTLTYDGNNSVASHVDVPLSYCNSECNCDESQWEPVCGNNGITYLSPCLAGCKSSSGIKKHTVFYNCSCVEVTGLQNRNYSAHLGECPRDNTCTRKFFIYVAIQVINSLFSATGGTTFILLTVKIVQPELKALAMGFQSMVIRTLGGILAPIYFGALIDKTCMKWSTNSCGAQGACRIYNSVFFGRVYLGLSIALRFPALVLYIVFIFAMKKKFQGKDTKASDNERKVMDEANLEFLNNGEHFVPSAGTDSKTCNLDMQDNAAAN

- compound: "CCOCCOCCOc1ccc(CCCC(C(=O)O)N2CCN(C(CO)C(=O)[O-])CCN(C(CO)C(=O)[O-])CCN(C(CO)C(=O)[O-])CC2)cc1.[Gd+3] (centres unmarked)"
  units_of_measure: "% inhibition"
  Inhibition Rifampicine: 98
- compound: "CCOCCOCCOCCOc1ccc(C[C@H](C(=O)O)N2CCN(CC(=O)[O-])CCN(CC(=O)[O-])CCN(CC(=O)[O-])CC2)cc1.[Gd+3]"
  units_of_measure: "% inhibition"
  Inhibition Rifampicine: 87
- compound: "CCOCCOc1ccc(CC(C(=O)O)N2CCN(CC(=O)[O-])CCN(C(COC)C(=O)[O-])CCN(CC(=O)[O-])CC2)cc1.[Gd+3] (centres unmarked)"
  units_of_measure: "% inhibition"
  Inhibition Rifampicine: 94
- compound: "CCOCCOc1ccc(CC(C(=O)O)N2CCN(CC(=O)[O-])CCN(C(CC)C(=O)[O-])CCN(CC(=O)[O-])CC2)cc1.[Gd+3] (single isomer, unassigned) [Example 7]"
  units_of_measure: "% inhibition"
  Inhibition Rifampicine: 99
- compound: "CCOCCOCCOc1ccc(CCC[C@@H](C(=O)O)N2CCN(CC(=O)[O-])CCN(CC(=O)[O-])CCN(CC(=O)[O-])CC2)cc1.[Gd+3]"
  units_of_measure: "% inhibition"
  Inhibition Rifampicine: 93
- compound: "CCOc1ccc(CCOCC(C(=O)O)N2CCN(CC(=O)[O-])CCN(CC(=O)[O-])CCN(CC(=O)[O-])CC2)cc1.[Gd+3] (centres unmarked)"
  units_of_measure: "% inhibition"
  Inhibition Rifampicine: 97
- compound: "CCCCOc1cccc(CCC[C@@H](C(=O)O)N2CCN([C@@H](CO)C(=O)[O-])CCN([C@@H](CO)C(=O)[O-])CCN([C@@H](CO)C(=O)[O-])CC2)c1.[Gd+3]"
  units_of_measure: "% inhibition"
  Inhibition Rifampicine: 98
- compound: "O=C([O-])CN1CCN(C(Cc2ccc(OCC(F)(F)C(F)F)cc2)C(=O)O)CCN(CC(=O)[O-])CCN([C@@H](CO)C(=O)[O-])CC1.[Gd+3] (mixture of isomers)"
  units_of_measure: "% inhibition"
  Inhibition Rifampicine: 98
- compound: "CCOCCOCCOc1ccc(CCC[C@@H](C(=O)O)N2CCN([C@@H](CO)C(=O)[O-])CCN([C@@H](CO)C(=O)[O-])CCN([C@@H](CO)C(=O)[O-])CC2)cc1.[Gd+3]"
  units_of_measure: "% inhibition"
  Inhibition Rifampicine: 98
- compound: "CCCCOc1ccc(CCC[C@@H](C(=O)O)N2CCN(CC(=O)[O-])CCN(CC(=O)[O-])CCN(CC(=O)[O-])CC2)cc1.[Gd+3]"
  units_of_measure: "% inhibition"
  Inhibition Rifampicine: 99
- compound: "CCOc1ccc(CCCC[C@@H](C(=O)O)N2CCN(CC(=O)[O-])CCN(CC(=O)[O-])CCN(CC(=O)[O-])CC2)cc1.[Gd+3]"
  units_of_measure: "% inhibition"
  Inhibition Rifampicine: 96
